Target: ATP-binding cassette sub-family B member 6 (Homo sapiens)
Assay: blockers of ABCB6-driven porphyrin uptake – K562-ABCB6 cells, flow cytometry, validation set, pilot screen (AID 588550);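 note: 0% = DMSO wells and 100% = benzethonium chloride 70 µM positive control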
Conditions: K562-ABCB6 porphyrin accumulation, 1 h, at 10 µM, stronger effect = higher value
PARAMETER_MEASURED: inhibition (%)
Supply the numeric figure in %, leaving out any unit text.

Guide cases for inhibition, answers given:
COMPOUND | DATA_VALUE
Cc1ccc(C(=O)Nc2ccccc2C(=O)NC(C(=O)O)C(C)C)cc1 (stereo unspecified) | 3
O=C(O)Cc1ccc(-c2ccccc2)cc1 | 8
COc1ccc([C@H]2[C@H](C(=O)OC(C)(C)C)N3N=Cc4ccccc4C3C23C(=O)c2ccccc2C3=O)cc1OC (stereo partly specified) | -27
NNC(=O)c1ccncc1 | 1
O=C(NCc1ccc(N2CCCC2=O)cc1)c1cccc(Cl)c1 | 0

**Q:** // lookup inhibition for CC1(C)CC(CC(=O)O)(c2ccc(Cl)cc2)CCO1 (stereo unspecified)
**A:** 9

**Q:** Next compound up: CCNC(=O)C12CCC(C)(C(=O)O1)C2(C)C (stereo unspecified)
**A:** 7

**Q:** Another compound: `CSCC[C@H](NC(=O)NC1CCCC1)C(=O)O`
**A:** 13

**Q:** Now consider `COc1ccc(-c2nc(NC(C)=O)sc2-c2ccc(OC)cc2)cc1` .
**A:** 0

**Q:** Field entry: `CCc1ccc(CN(C)Cc2nc(Cc3ccccc3)no2)nc1`
**A:** -5

**Q:** Field entry: CCN(CC)c1ccc(C2=NNC(=O)CC2C)cc1[N+](=O)[O-] (stereo unspecified)
**A:** -22

====

Test: Nile Red efflux blockade in pump-expressing yeast – validation compound set, multiplex, phenotypic, pilot screen (AID 588506);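 note: Nile Red retained in cells so higher fluorescence means more efflux inhibition; 0 = negative control wells and 1 = enniatin B 25 µM full block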
Conditions: S. cerevisiae pump-expressing triplex, Nile Red efflux flow cytometry; at 10 µM; stronger effect = higher value; the pumps come from Candida albicans
Please note: efflux inhibition (fraction of control) exactly at 0 is label 0. Only values below 0 get label 1.

COMPOUND | CAT
CCCCCCC(=O)N(O)C1CC(=O)N(Cc2ccccc2)C1=O (stereo not drawn) | label 1
Cc1ccc(C(=O)O)cc1NC(=O)c1cccs1 | label 0
CCCCNc1ccc(C(=O)OCCN(C)C)cc1 | label 1
COc1ccc(/C=C/C(=O)c2cc3cccc(OC)c3oc2=O)cc1 | label 0
CC(=O)CSc1ncnc2c1cnn2-c1ccccc1 | label 0
CC1(C)S[C@@H]2[C@H](NC(=O)Cc3ccccc3)C(=O)N2[C@H]1C(=O)O | label 0

**Q:** Decide: efflux inhibition (fraction of control) of `Fc1ccc(-c2cc(-c3ccccc3)nc(-n3cccn3)n2)cc1` strictly below 0?
**A:** label 0

**Q:** Lookup `CN1C(C(=O)Nc2ccccn2)=C(O)c2ccccc2S1(=O)=O`
**A:** label 1

**Q:** Same read-out for CCOC(=O)C(NC(C)=O)C(O)c1ccc([N+](=O)[O-])cc1 (stereo not drawn) ?
**A:** label 1

**Q:** # iterate: `CC(=O)c1cccc2c(O)c(C3=Nc4ccccc4C3=O)[nH]c12`
**A:** label 0

====

Target: ATP-binding cassette sub-family B member 6 (Homo sapiens) (UniProt Q9NP58)
Sequence (Q9NP58 whole entry, looked up): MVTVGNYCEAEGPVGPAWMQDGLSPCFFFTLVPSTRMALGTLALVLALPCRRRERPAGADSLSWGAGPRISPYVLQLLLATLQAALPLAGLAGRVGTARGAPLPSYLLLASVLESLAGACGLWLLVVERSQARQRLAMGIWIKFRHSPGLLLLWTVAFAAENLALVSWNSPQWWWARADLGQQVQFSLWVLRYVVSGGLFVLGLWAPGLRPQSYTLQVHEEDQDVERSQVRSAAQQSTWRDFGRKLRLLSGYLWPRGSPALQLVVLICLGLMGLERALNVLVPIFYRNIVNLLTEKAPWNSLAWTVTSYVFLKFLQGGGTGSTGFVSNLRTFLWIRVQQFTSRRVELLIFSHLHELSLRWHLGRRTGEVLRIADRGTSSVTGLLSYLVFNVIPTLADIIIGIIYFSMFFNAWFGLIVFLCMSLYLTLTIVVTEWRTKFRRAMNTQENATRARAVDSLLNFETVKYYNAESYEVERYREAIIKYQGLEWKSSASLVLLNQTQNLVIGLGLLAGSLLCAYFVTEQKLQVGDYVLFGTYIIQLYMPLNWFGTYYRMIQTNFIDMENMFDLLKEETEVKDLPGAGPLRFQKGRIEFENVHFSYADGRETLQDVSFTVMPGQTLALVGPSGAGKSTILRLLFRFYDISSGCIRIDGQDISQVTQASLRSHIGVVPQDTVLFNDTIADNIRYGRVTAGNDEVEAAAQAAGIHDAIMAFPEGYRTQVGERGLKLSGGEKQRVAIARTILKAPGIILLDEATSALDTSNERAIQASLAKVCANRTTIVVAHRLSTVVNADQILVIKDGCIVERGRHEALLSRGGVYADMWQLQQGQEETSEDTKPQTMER
Assay: blockers of ABCB6-driven porphyrin uptake – K562-ABCB6 cells, flow cytometry, validation set, pilot screen (AID 588550);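 note: 0% = DMSO wells and 100% = benzethonium chloride 70 µM positive control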
Settings: K562-ABCB6 porphyrin accumulation, 1 h, at 10 µM, stronger effect = higher value
PARAMETER_MEASURED: inhibition (%)
Number only, in %; omit the unit.

COMPOUND | TARGET_SYSTEM | inhibition / %
COc1ccc(C2C(C#N)=C(N)Oc3cc(C)[nH]c(=O)c32)c(OC)c1OC (configuration not stated) | ATP-binding cassette sub-family B member 6 (Homo sapiens) (UniProt Q9NP58) | 10

**Q:** Record request: inhibition value, item `O=C(NCc1ccco1)/C(=C\C=C\c1ccccc1)NC(=O)c1ccccc1Br`
**A:** -4

**Q:** Similarly, `COc1cc(C(=O)OCCn2c(=O)c3c(ncn3CCN(C)C)n(C)c2=O)cc(OC)c1OC` ?
**A:** 9

**Q:** Another compound to look at: `Cc1nc2ccccc2n1CC(=O)NC1CCCC1`
**A:** -2

**Q:** Do the same for COC(=O)C1=C(C)NC(C)=C(C(=O)OCCN(C)Cc2ccccc2)C1c1cccc([N+](=O)[O-])c1 (configuration not stated) please
**A:** -2

**Q:** Request: `CC1CCN(C(=O)Oc2ccccc2)CC1`
**A:** 5

**Q:** Subsequent entry: `Cc1ccccc1C(=O)NNc1ncnc2c1cnn2C`
**A:** -17

**Q:** Again, but for `COC(=O)[C@H]1[C@H]2C[C@@H]3c4[nH]c5cc(OC)ccc5c4CCN3C[C@H]2C[C@@H](OC(=O)c2ccc(N)cc2)[C@@H]1OC`
**A:** -53

**Q:** Now this one: Cc1ccc2nc(NC3=NC(CC(=O)O)C(=O)N3)nc(C)c2c1 (configuration not stated)
**A:** 6

**Q:** Repeat for the following compound: CC(C)OC(=O)C1C2C=CC3(CN(CC4CCCO4)C(=O)C13)O2 (configuration not stated)
**A:** 7

**Q:** Please answer likewise for `Cc1nnc(SCC2=C(C(=O)O)N3C(=O)[C@@H](NC(=O)Cn4cnnn4)[C@H]3SC2)s1`
**A:** 1

**Q:** Try the compound `O=C(O)CCCCCCNC(=O)c1cncc(O)c1`
**A:** -5

**Q:** // same read-out, input: CC12CCC(C(=O)NNc3ccccc3)(C(=O)C1=O)C2(C)C (configuration not stated)
**A:** -14

**Q:** Then CC(C)C[C@H]1C(=O)N2CCC[C@H]2[C@]2(O)O[C@](NC(=O)[C@@H]3C=C4c5cccc6[nH]c(Br)c(c56)CC4N(C)C3)(C(C)C)C(=O)N12 (some centres not stated) ?
**A:** -91

**Q:** Thanks! And `CN(C)CC/C=C1\c2ccccc2Sc2ccc(Cl)cc21` ?
**A:** 9

**Q:** Also need O=C(O)CCCCCN1C(=O)C(=O)/C(=C(/O)c2ccccc2)C1c1ccccc1 (configuration not stated) , thanks.
**A:** 7

**Q:** Field entry: `Cn1c(=O)[nH]c2nnc(-c3ccc(Cl)c(Cl)c3)nc2c1=O`
**A:** -7

**Q:** Can you handle `c1ccc(CC2=NCCN2)cc1` next?
**A:** -5

**Q:** Can you handle `COc1cc2c(cc1OC)C(=S)NC(C)(C)C2` next?
**A:** -13

====

Target: ATP-binding cassette sub-family B member 6 (Homo sapiens) (UniProt Q9NP58)
Test: blockers of ABCB6-driven porphyrin uptake – K562-ABCB6 cells, flow cytometry, validation set, pilot screen (AID 588550);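 note: 0% = DMSO wells and 100% = benzethonium chloride 70 µM positive control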
Settings: K562-ABCB6 porphyrin accumulation, 1 h, at 10 µM, stronger effect = higher value
Examples of molecules with documented inhibition follow.
Answer in %, number only, no unit symbol.

Use the examples below as a reference point.
MOLECULE | PARAMETER_MEASURED | DATA_VALUE
C(=C\c1ccc2ccccc2n1)/c1ccccc1 | inhibition | 114
CCOc1ccc(C(=O)NC(C)C2COc3ccccc3O2)cc1 (stereo unspecified) | inhibition | 1
Nc1ccn([C@@H]2O[C@H](CO)[C@@H](O)[C@@H]2O)c(=O)n1 | inhibition | -10
CCCCN(CCCC)CCCOC(=O)c1ccc(N)cc1 | inhibition | 9
Cc1ccc(C(=O)O)cc1NC(=O)c1cccs1 | inhibition | 10

Now, please, on to the next molecule.
**Q:** // returns reported inhibition for input CCOC(=O)C1C2C=CC3(CN(c4ccc(Cl)c(F)c4)C(=O)C13)O2 (stereo unspecified)
**A:** 2

====

Test: yeast AGP1-GFP level changes, GLN3 branch – cell-based, multiplex flow cytometry, S. cerevisiae, primary screen (AID 1887);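 note: AGP1-GFP fusion strain of S. cerevisiae within a five-strain barcoded multiplex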
Details: 3 h, at 10 µM, stronger effect = higher value
Records with an inconclusive call do not appear. Activity calls are given as the source filed them.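 How the source made its calls: active means GFP signal above the screen-wide mean plus 3 SD, that is over about 124.5% of the solvent control; inconclusive means no reading because the compound's own fluorescence disturbed strain identification; inactive means the rest.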
In this section we review reported GFP response, % of DMSO values for a set of compounds.

COMPOUND | GFP response, % of DMSO
COc1cccc(NC(=O)C2CC(=O)OC23CCOC(C)(C)C3)c1 (centres undefined) | 94.2% (inactive)
COc1cc(NC(=S)NC(=O)c2cccs2)ccc1NC(=O)C(C)C | 101% (inactive)
Cc1nc(NC(CC(C)C)C(=O)O)c2nc(C)oc2n1 (centres undefined) | 101% (inactive)

Kindly consider the entry below.
**Q:** Find the recorded GFP response, % of DMSO belonging to Cc1onc(-c2c(Cl)cccc2Cl)c1C(=O)NC1C(=O)N2C1SC(C)(C)C2C(=O)O (centres undefined) and report it.
**A:** 113% (inactive)

====

System: anti-desmoglein-3 scFv antibody binding to human DSG3
Assay: blockers of pathogenic pemphigus antibody–desmoglein-3 binding – biochemical, validation compound set, bead-based, flow cytometry, pilot screen (AID 588368);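 note: signal is the median channel fluorescence of bead-bound GFP antibody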
Details: Protein G beads, DSG3-Fc, scFv-GFP binding, at 10 µM, stronger effect = lower value
PARAMETER_MEASURED: binding (% of control) (%)
Respond numerically; units are % and should not be typed.

COMPOUND | PARAMETER_MEASURED | DATA_VALUE
COc1ccc(CN2CCCC(C(=O)c3ccc(Cl)cc3)C2)cc1Cn1cccn1 (centres undefined) | binding (% of control) | 98.5
CCn1ccnc1CN(C)Cc1cn(-c2cccc(C)c2)nc1-c1cccc(F)c1 | binding (% of control) | 105
COc1ccc(OCc2cccc(C(=O)NN)c2)cc1 | binding (% of control) | 103
COCCOC(=O)C1=C(N)OC2=C(C(=O)CCC2)C1c1cccnc1 (centres undefined) | binding (% of control) | 99.3
COc1cccc(OCc2nnc(-c3cccs3)o2)c1 | binding (% of control) | 102
Cc1cccc(C)c1NC(=O)C1CCCCN1C (centres undefined) | binding (% of control) | 98.2

**Q:** Give its binding (% of control) value. Item: CC(C)CN1CCN(Cc2ccc(C#CC(C)(C)O)cc2)CC1CCO (centres undefined)
**A:** 98.3

**Q:** // next record `Nc1nnc(CSCc2ccc(Cl)cc2Cl)s1`
**A:** 112

**Q:** Also, CC12CCC(C(=O)N(CCC#N)CCC#N)(CC1=O)C2(C)C (centres undefined) please.
**A:** 100

Reference source for all entries: PubChem BioAssay
